Where do the numbers come from? From patent US20250276090A1.

Give Mean percentage of T cells positive for GFP expression for every item shown.
test system: AAVS1; test: GFP insertion at AAVS1 in T cells with SpyCas9 RNP and gapped AAV templates, flow cytometry (Example 6); format: cell-based, human; conditions: Donor 1; Template D; day 7 post-editing
Strand notation (5' to 3'): a small letter for the sugar, then the base; units joined by * are phosphorothioate-linked, units joined directly phosphodiester-linked; [ ] holds rarer units or linkages, { } end groups; capitals alone tell only the bases. m = 2'-O-methyl; r = 2'-OH (RNA)
Number in %, nothing else.

Supply measured Mean percentage of T cells positive for GFP expression of G013519: AAVS1 SpyCas9 guide RNA, guide sequence SEQ ID NO: 253, chr19:55115616-55115636 (nucleic acid) guide: mG*mC*mA*rArGrGrArGrArGrArGrArUrGrGrCrUrCrCrGrUrUrUrUrArGrAmGmCmUmAmGmAmAmAmUmAmGmCrArArGrUrUrArArArArUrArArGrGrCrUrArGrUrCrCrGrUrUrArUrCrAmAmCmUmUmGmAmAmAmAmAmGmUmGmGmCmAmCmCmGmAmGmUmCmGmGmUmGmCmU*mU*mU*mU in your reply.
73.35

Supply measured Mean percentage of T cells positive for GFP expression of G013523: AAVS1 SpyCas9 guide RNA, guide sequence SEQ ID NO: 255, chr19:55115637-55115657 (nucleic acid) guide: mG*mG*mU*rGrArCrArCrArCrCrCrCrCrArUrUrUrCrCrGrUrUrUrUrArGrAmGmCmUmAmGmAmAmAmUmAmGmCrArArGrUrUrArArArArUrArArGrGrCrUrArGrUrCrCrGrUrUrArUrCrAmAmCmUmUmGmAmAmAmAmAmGmUmGmGmCmAmCmCmGmAmGmUmCmGmGmUmGmCmU*mU*mU*mU in your reply.
70.50

Supply measured Mean percentage of T cells positive for GFP expression of G000562: AAVS1 SpyCas9 guide RNA, guide sequence SEQ ID NO: 251, chr19:55115695-55115715 (nucleic acid) guide: mC*mC*mA*rArUrArUrCrArGrGrArGrArCrUrArGrGrArGrUrUrUrUrArGrAmGmCmUmAmGmAmAmAmUmAmGmCrArArGrUrUrArArArArUrArArGrGrCrUrArGrUrCrCrGrUrUrArUrCrAmAmCmUmUmGmAmAmAmAmAmGmUmGmGmCmAmCmCmGmAmGmUmCmGmGmUmGmCmU*mU*mU*mU in your reply.
29.65

Supply measured Mean percentage of T cells positive for GFP expression of G013520: AAVS1 SpyCas9 guide RNA, guide sequence SEQ ID NO: 254, chr19:55115623-55115643 (nucleic acid) guide: mG*mA*mG*rArGrArUrGrGrCrUrCrCrArGrGrArArArUrGrUrUrUrUrArGrAmGmCmUmAmGmAmAmAmUmAmGmCrArArGrUrUrArArArArUrArArGrGrCrUrArGrUrCrCrGrUrUrArUrCrAmAmCmUmUmGmAmAmAmAmAmGmUmGmGmCmAmCmCmGmAmGmUmCmGmGmUmGmCmU*mU*mU*mU in your reply.
71.80
